# Experimental Target: T1, P6A-bA
# T1 chain: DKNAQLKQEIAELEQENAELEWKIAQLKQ
# Assay Protocol: two-hybrid library CCNG1;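 also: natural log of median RNA to DNA barcode read ratio; higher means stronger binding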
Measured Parameter: interaction score

Examples from the recorded data:
DKIAQLKQKNAELKQKNAELKWKIAQLKQ [P2A-bA] = 0.426
DEIAQLEQENAELEQENAELEWEIAQLEQ [P1A-bA] = -1.21
DKNAQLKQENAELEQKIAELKWKIAQLKQ [P10A-bA] = -0.543
DKNAQLKQKIAELKQKIAELKWENAQLEQ [P12A-bA] = -0.314

A = DEISQLEQKISELKQENSELEWENSQLEQ [O3-bS]
B = DENAQLEQEIAELEQEIAELEWKNAQLKQ [P11A-bA]
C = DEIAQLEQEIAELEQKNAELKWKNAQLKQ [P3A-bA]
D = DENAQLEQKIAELKQKNAELKWEIAQLEQ [P5A-bA]
E = DKIAQLKQKIAELKQENAELEWENAQLEQ [P4A-bA]
Sequence the entries by interaction score, beginning with the highest number. Order the labels as requested and list them.
D, C, B, A, E
(D: 2.33, C: 1.19, B: 0.118, A: -1.14, E: -2.07)
